// provenance: PubChem BioAssay AID2060486

# Test system: IGROV1 complex spheroids (HUVEC, MSC), viability % test/control
# measurement_description: Anticancer human tumor IGROV1 cell line growth inhibition [GQUAD];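 further: spheroids exposed to compounds for 7 days before readout; 100% = DMSO vehicle control viability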
# reported_conditions: second compound 0.316 µM; first compound 3.16 µM; stronger effect = lower value
Class membership depends on viability, T/C alone; the intervals are low group: < 5%; middle group: ≥ 5% and < 40%; high group: ≥ 40%

Please classify: CC(C)n1c(=O)n(C)c2cnc3cc(F)c(-c4ccc(OCCCN5CCCCC5)nc4)cc3c21 + Cc1[nH]c2ccc(F)cc2c1-c1nc2c3cccnc3c3ncccc3c2[nH]1
high group

Just checking, what class would you give C#Cc1c(F)ccc2cc(O)cc(-c3ncc4c(N5CC6CCC(C5)N6)nc(OCC56CCCN5CC(F)C6)nc4c3F)c12 (stereo not drawn) + CN(C)c1ccc(Nc2c3ccc(NC(=O)CCN4CCCC4)cc3nc3cc(NC(=O)CCN4CCCC4)ccc23)cc1 here?
high group

---

# System: IGROV1 complex spheroids (HUVEC, MSC), viability % test/control
# measurement_description: Anticancer human tumor IGROV1 cell line growth inhibition [GQUAD];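 further: spheroids exposed to compounds for 7 days before readout; 100% = DMSO vehicle control viability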
# reported_conditions: second compound 1 µM; first compound 0.1 µM; stronger effect = lower value
viability, T/C for assorted compounds
I only need the number, in %, no unit after it.

Worked examples follow.
CC1COCCN1c1cc(-c2ccnn2C)c2ccnc(-c3ccn[nH]3)c2n1 (stereo unspecified) + Cc1[nH]c2ccc(F)cc2c1-c1nc2c3cccnc3c3ncccc3c2[nH]1
3.29
CC1COCCN1c1cc(C2(S(C)(=N)=O)CC2)nc(-c2ccnc3[nH]ccc23)n1 (stereo unspecified) + Cc1[nH]c2ccc(F)cc2c1-c1nc2c3cccnc3c3ncccc3c2[nH]1
4.27
C=CC(=O)N1CCN(c2nc(=O)n(-c3c(C)ccnc3C(C)C)c3nc(-c4c(O)cccc4F)c(F)cc23)C(C)C1 (stereo unspecified) + CN(C)c1ccc(Nc2c3ccc(NC(=O)CCN4CCCC4)cc3nc3cc(NC(=O)CCN4CCCC4)ccc23)cc1
70.3

Give viability, T/C (IGROV1 complex spheroids (HUVEC, MSC), viability % test/control) of the following compound: COc1cccc2c1C(=O)c1c(O)c3c(c(O)c1C2=O)CC(O)(C(=O)CO)CC3OC1CC(N)C(O)C(C)O1 (stereo unspecified) + CN(C)c1ccc(Nc2c3ccc(NC(=O)CCN4CCCC4)cc3nc3cc(NC(=O)CCN4CCCC4)ccc23)cc1
25.7

What measured viability, T/C is associated with O=c1[nH]cc(F)c(=O)[nH]1 + Cc1[nH]c2ccc(F)cc2c1-c1nc2c3cccnc3c3ncccc3c2[nH]1 on IGROV1 complex spheroids (HUVEC, MSC), viability % test/control?
4.95

Lab request: please report viability, T/C under test system IGROV1 complex spheroids (HUVEC, MSC), viability % test/control for CC1COCCN1c1cc(C2(S(C)(=N)=O)CC2)nc(-c2ccnc3[nH]ccc23)n1 (stereo unspecified) + CN(C)c1ccc(Nc2c3ccc(NC(=O)CCN4CCCC4)cc3nc3cc(NC(=O)CCN4CCCC4)ccc23)cc1
93

---

# System: IGROV1 complex spheroids (HUVEC, MSC), viability % test/control
# measurement_description: Anticancer human tumor IGROV1 cell line growth inhibition [GQUAD];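 further: spheroids exposed to compounds for 7 days before readout; 100% = DMSO vehicle control viability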
# reported_conditions: second compound 10 µM; first compound 0.316 µM; stronger effect = lower value
// assign met if viability, T/C falls strictly below 30%, else not met (ties count as not met)

Illustrative cases are given below, each with its answer.
C=CCn1c(=O)c2cnc(Nc3ccc(N4CCN(C)CC4)cc3)nc2n1-c1cccc(C(C)(C)O)n1 + Cc1cnc(CNC(=O)c2c(=O)c3ccc(N4CCCN(C)CC4)nc3n3c2sc2ccccc23)cn1
met
CCc1c2c(nc3ccc(O)cc13)-c1cc3c(c(=O)n1C2)COC(=O)[C@]3(O)CC + CN(C)c1ccc(Nc2c3ccc(NC(=O)CCN4CCCC4)cc3nc3cc(NC(=O)CCN4CCCC4)ccc23)cc1
met
CC1COCCN1c1cc(C2(S(C)(=N)=O)CC2)nc(-c2ccnc3[nH]ccc23)n1 (configuration not stated) + CN(C)c1ccc(Nc2c3ccc(NC(=O)CCN4CCCC4)cc3nc3cc(NC(=O)CCN4CCCC4)ccc23)cc1
not met
O=c1[nH]cc(F)c(=O)[nH]1 + Cc1cnc(CNC(=O)c2c(=O)c3ccc(N4CCCN(C)CC4)nc3n3c2sc2ccccc23)cn1
met
C=CC(=O)N1CCN(c2nc(=O)n(-c3c(C)ccnc3C(C)C)c3nc(-c4c(O)cccc4F)c(F)cc23)C(C)C1 (configuration not stated) + Cc1cnc(CNC(=O)c2c(=O)c3ccc(N4CCCN(C)CC4)nc3n3c2sc2ccccc23)cn1
met

Now let's try a different one.
For Cc1cccc(N(C)C(=O)C2C(O)CCN2c2nc(C)cc(C(F)(F)F)c2C#N)c1 (configuration not stated) + CN(C)c1ccc(Nc2c3ccc(NC(=O)CCN4CCCC4)cc3nc3cc(NC(=O)CCN4CCCC4)ccc23)cc1 , is the recorded viability, T/C below the cut-off of 30%?
not met
